The values you see were collected from ChEMBL document CHEMBL2016434.

# test_target: Breast cancer type 1 susceptibility protein (Homo sapiens)
# test_summary: Inhibition of BRCT domain of His-tagged BRCA1 after 1 min by competitive fluorescence polarization assay
Non-standard residues stand in square brackets, D forms with d. Residues, ends and D or L forms follow the SMILES beside them. *: point of attachment. 2Nal = N[C@@H](Cc1ccc2ccccc2c1)C(=O)O; Hydrocinnamoyl = O=C(CCc1ccccc1)*; pS = N[C@@H](COP(=O)(O)O)C(=O)O; X1 = O=C(C/C=C/c1ccccc1)*
measured_metric: Ki (nM)

CC(C)[C@H](NC(=O)[C@@H]1CCCN1C(=O)[C@H](COP(=O)(O)O)NC(=O)CCc1ccccc1)C(=O)N[C@@H](Cc1ccccc1)C(=O)O (Hydrocinnamoyl-[pS]PVF-OH) :: 100
CC(=O)N[C@@H](Cc1ccc2ccccc2c1)C(=O)N[C@@H](COP(=O)(O)O)C(=O)N1CCC[C@H]1C(=O)N[C@H](C(=O)N[C@@H](Cc1ccccc1)C(N)=O)[C@@H](C)O (Ac-[2Nal][pS]PTF-NH2) :: 1240
CC(C)[C@H](NC(=O)[C@@H]1CCCN1C(=O)[C@H](COP(=O)(O)O)NC(=O)C/C=C/c1ccccc1)C(=O)N[C@@H](Cc1ccccc1)C(=O)O (X1-[pS]PVF-OH) :: 40
CC(=O)N[C@@H](Cc1ccc2ccccc2c1)C(=O)N[C@@H](COP(=O)(O)O)C(=O)N1CCC[C@H]1C(=O)N[C@H](C(=O)N[C@@H](Cc1ccccc1)C(=O)O)C(C)C (Ac-[2Nal][pS]PVF-OH) :: 130

----------
# test_target: Breast cancer type 1 susceptibility protein (Homo sapiens, UniProt P38398)
# Sequence (P38398 whole entry, the tested form may be a part): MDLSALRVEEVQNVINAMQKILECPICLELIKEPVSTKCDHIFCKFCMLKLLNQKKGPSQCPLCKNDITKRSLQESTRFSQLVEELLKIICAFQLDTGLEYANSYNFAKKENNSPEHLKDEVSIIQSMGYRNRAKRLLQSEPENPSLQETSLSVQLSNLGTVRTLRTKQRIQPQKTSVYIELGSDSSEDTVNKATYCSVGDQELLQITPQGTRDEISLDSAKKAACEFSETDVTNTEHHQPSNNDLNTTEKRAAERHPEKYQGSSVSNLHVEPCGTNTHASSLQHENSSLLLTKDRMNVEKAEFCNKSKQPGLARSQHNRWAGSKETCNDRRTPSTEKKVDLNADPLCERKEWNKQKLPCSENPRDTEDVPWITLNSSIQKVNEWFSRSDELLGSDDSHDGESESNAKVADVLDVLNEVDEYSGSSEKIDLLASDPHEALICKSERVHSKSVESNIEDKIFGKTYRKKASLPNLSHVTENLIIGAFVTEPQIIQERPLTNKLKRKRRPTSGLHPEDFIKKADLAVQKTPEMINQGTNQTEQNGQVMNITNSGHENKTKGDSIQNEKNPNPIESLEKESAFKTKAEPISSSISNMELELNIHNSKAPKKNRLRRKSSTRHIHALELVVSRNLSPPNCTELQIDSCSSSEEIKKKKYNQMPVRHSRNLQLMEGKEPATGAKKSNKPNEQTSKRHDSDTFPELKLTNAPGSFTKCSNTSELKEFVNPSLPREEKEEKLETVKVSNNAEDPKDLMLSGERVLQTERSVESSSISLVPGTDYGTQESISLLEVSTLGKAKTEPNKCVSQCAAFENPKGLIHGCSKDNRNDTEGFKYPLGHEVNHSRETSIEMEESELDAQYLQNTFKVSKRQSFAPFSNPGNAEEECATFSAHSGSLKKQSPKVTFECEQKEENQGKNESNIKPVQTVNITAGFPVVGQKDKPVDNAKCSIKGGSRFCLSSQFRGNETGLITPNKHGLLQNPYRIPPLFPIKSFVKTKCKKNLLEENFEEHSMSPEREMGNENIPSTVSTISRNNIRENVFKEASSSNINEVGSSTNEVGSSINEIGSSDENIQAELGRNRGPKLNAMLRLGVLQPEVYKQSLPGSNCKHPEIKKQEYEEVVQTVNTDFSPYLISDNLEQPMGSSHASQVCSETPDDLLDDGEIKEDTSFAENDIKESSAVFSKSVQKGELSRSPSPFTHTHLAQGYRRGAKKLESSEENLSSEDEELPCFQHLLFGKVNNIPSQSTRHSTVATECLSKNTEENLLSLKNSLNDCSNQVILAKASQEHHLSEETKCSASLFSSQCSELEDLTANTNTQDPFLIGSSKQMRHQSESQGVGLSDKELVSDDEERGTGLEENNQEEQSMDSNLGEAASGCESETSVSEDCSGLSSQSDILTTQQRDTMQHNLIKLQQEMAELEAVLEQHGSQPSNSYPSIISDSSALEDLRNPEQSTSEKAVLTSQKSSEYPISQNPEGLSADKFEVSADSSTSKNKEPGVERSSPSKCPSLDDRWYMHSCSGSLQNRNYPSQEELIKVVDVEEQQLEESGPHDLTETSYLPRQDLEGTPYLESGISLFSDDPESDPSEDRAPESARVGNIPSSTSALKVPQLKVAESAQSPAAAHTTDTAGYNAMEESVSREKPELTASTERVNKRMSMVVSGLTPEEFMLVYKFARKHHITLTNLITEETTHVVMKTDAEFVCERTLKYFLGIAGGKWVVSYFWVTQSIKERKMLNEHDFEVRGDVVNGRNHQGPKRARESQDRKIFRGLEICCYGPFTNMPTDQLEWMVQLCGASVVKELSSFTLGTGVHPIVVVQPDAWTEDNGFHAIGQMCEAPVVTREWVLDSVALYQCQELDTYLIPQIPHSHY
Non-standard residues stand in square brackets, D forms with d. Residues, ends and D or L forms follow the SMILES beside them. *: point of attachment. Benzoyl(3-Ph) = O=C(c1cccc(-c2ccccc2)c1)*; 2Nal = N[C@@H](Cc1ccc2ccccc2c1)C(=O)O; d2Nal = N[C@H](Cc1ccc2ccccc2c1)C(=O)O; Pentanoyl(5-Ph) = O=C(CCCCc1ccccc1)*; Butanoyl(4-Ph) = O=C(CCCc1ccccc1)*; pS = N[C@@H](COP(=O)(O)O)C(=O)O
Entries and their log10 of Ki values follow.
measured_metric: log10 of Ki (log10 of the value in nM)

CC(C)[C@H](NC(=O)[C@@H]1CCCN1C(=O)[C@H](COP(=O)(O)O)NC(=O)CCCc1ccccc1)C(=O)N[C@@H](Cc1ccccc1)C(=O)O ({Butanoyl(4-Ph)}-[pS]PVF-OH) :: 2.70
CC(=O)N[C@@H](Cc1ccc2ccccc2c1)C(=O)N[C@@H](COP(=O)(O)O)C(=O)N1CCC[C@H]1C(=O)N[C@H](C(=O)N[C@@H](Cc1ccccc1)C(N)=O)C(C)C (Ac-[2Nal][pS]PVF-NH2) :: 2.73
CC(C)[C@H](NC(=O)[C@@H]1CCCN1C(=O)[C@H](COP(=O)(O)O)NC(=O)c1cccc(-c2ccccc2)c1)C(=O)N[C@@H](Cc1ccccc1)C(=O)O ({Benzoyl(3-Ph)}-[pS]PVF-OH) :: 1.90
CC(C)[C@H](NC(=O)[C@@H]1CCCN1C(=O)[C@H](COP(=O)(O)O)NC(=O)CCCCc1ccccc1)C(=O)N[C@@H](Cc1ccccc1)C(=O)O ({Pentanoyl(5-Ph)}-[pS]PVF-OH) :: 4.08
CC(=O)N[C@H](Cc1ccc2ccccc2c1)C(=O)N[C@@H](COP(=O)(O)O)C(=O)N1CCC[C@H]1C(=O)N[C@H](C(=O)N[C@@H](Cc1ccccc1)C(N)=O)[C@@H](C)O (Ac-[d2Nal][pS]PTF-NH2) :: 4.29
